B1: HHH_rd1_0493 (parent)
chain: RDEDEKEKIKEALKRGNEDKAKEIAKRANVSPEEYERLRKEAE

Variants of: B1
PROTOCOL_TEXT: folding stability dG (cDNA display proteolysis); higher = more stable
CONDITION_NOTES: PBS, room temperature
Rule: folding stability dG under 2 kcal/mol gives N, otherwise Y.

>>> cat("R15V")
"Y"
>>> cat("A42Q")
"N"

Ask: Form field: folding stability dG at least 2 kcal/mol? Entry: A25Y
Reply: N

Ask: Textbook exercise: given the entry E34D , state whether its folding stability dG is greater than or equal to 2 kcal/mol.
Reply: Y

Ask: Has K10A a recorded folding stability dG greater than or equal to 2 kcal/mol?
Reply: N
